Data credit: ChEMBL document CHEMBL3232822

- METHOD_SUMMARY: Cytotoxicity against HEK293T cells after 48 hrs by MTT assay
- Assay type: cell-based, HEK-293T
- CONDITIONS_USED: human

# ENTRY_SMILES, GI50 at 48 h
rows = [
    ("O=C1Nc2cc(Cl)ccc2[C@]12[C@@H](c1ccccc1)C(c1ccccc1)=NN2c1ccccc1", "> 50 µM"),
    ("CC(C)(C)C1=NN(c2ccccc2)[C@]2(C(=O)Nc3cc(Br)ccc32)[C@H]1c1ccccc1", "20.9 µM"),
    ("COc1ccc(C2=NN(c3ccccc3)[C@]3(C(=O)Nc4c(Cl)cccc43)[C@H]2c2ccccc2)cc1", "> 100 µM"),
    ("CC(C)(C)C1=NN(c2ccccc2)[C@]2(C(=O)Nc3cc(Cl)ccc32)[C@H]1c1ccccc1", "> 50 µM"),
]

* * *

- METHOD_SUMMARY: Cytotoxicity against HEK293T cells after 48 hrs by MTT assay
- Assay type: cell-based, HEK-293T
- CONDITIONS_USED: human
PROPERTY_LABEL: GI50 at 48 h (µM)

# ENTRY_SMILES, CENSORING_QUALIFIER, TEST_RESULT
data = [
    ("O=C1Nc2cc(Br)ccc2[C@]12[C@@H](c1ccccc1)C(c1ccccc1)=NN2c1ccccc1", "=", 28.9),
    ("COc1ccc(C2=NN(c3ccccc3)[C@]3(C(=O)Nc4cc(Br)ccc43)[C@H]2c2ccccc2)cc1", ">", 100),
    ("CC(C)(C)C1=NN(c2ccccc2)[C@]2(C(=O)Nc3c(Cl)cccc32)[C@H]1c1ccccc1", "=", 17.8),
    ("O=C1Nc2ccc(Br)cc2[C@]12[C@@H](c1ccccc1)C(c1ccccc1)=NN2c1ccccc1", ">", 100),
]

* * *

- Test system: HEK-293T
- METHOD_SUMMARY: Selectivity index, ratio of GI50 for HEK293T cells to GI50 for human HER2-deficient MCF7 cells
- Type: functional
# RatioGI50 listing for each entry below
PROPERTY_LABEL: RatioGI50

# ENTRY_SMILES, TARGET_SYSTEM, TEST_RESULT
rows = [
    ("CC(C)(C)C1=NN(c2ccccc2)[C@]2(C(=O)Nc3cc(Br)ccc32)[C@H]1c1ccccc1", "HEK-293T", 2.5),
    ("COc1ccc(C2=NN(c3ccccc3)[C@]3(C(=O)Nc4c(Cl)cccc43)[C@H]2c2ccccc2)cc1", "HEK-293T", ">8"),
    ("O=C1Nc2ccc(Br)cc2[C@]12[C@@H](c1ccccc1)C(c1ccccc1)=NN2c1ccccc1", "HEK-293T", ">13"),
    ("CC(C)(C)C1=NN(c2ccccc2)[C@]2(C(=O)Nc3cc(Cl)ccc32)[C@H]1c1ccccc1", "HEK-293T", ">2"),
    ("O=C1Nc2cc(Cl)ccc2[C@]12[C@@H](c1ccccc1)C(c1ccccc1)=NN2c1ccccc1", "HEK-293T", ">2"),
    ("O=C1Nc2cc(Br)ccc2[C@]12[C@@H](c1ccccc1)C(c1ccccc1)=NN2c1ccccc1", "HEK-293T", 3),
    ("COc1ccc(C2=NN(c3ccccc3)[C@]3(C(=O)Nc4cc(Br)ccc43)[C@H]2c2ccccc2)cc1", "HEK-293T", ">14"),
    ("CC(C)(C)C1=NN(c2ccccc2)[C@]2(C(=O)Nc3c(Cl)cccc32)[C@H]1c1ccccc1", "HEK-293T", 2),
]
